So I've got a bunch of compounds here, and I need their percentage damage caused to the plant, five-point scale, IPOHE values.
Test system: IPOHE
test-description: Post-emergence Test, glasshouse, IPOHE
Format: in vivo
setup-conditions: 250 g/ha, evaluated after 13 days

Entry under review: FC(F)(F)CCCn1ncc2c(Cl)cc(Cl)c(Oc3ncc(Cl)cn3)c21 . Reported percentage damage caused to the plant, five-point scale, IPOHE?
1 (1=0-20%)

# percentage damage caused to the plant, five-point scale, IPOHE lookup, item C=CCn1nc(Cl)c2cccc(Oc3ncc(Cl)cn3)c21
2 (2=21-40%)

Looking for the measured percentage damage caused to the plant, five-point scale, IPOHE of FC(F)(F)CCCn1nc(Cl)c2c(Cl)cc(Cl)c(Oc3ncc(Cl)cn3)c21 , can you help?
1 (1=0-20%)

# get_value(readout='percentage damage caused to the plant, five-point scale, IPOHE', item= Fc1cnc(Oc2cccc3c(C(F)(F)F)nn(CCCC(F)(F)F)c23)nc1 )
4 (4=61-80%)

For the compound shown here, CC(C)CCn1nc(Cl)c2cccc(Oc3ncc(Cl)cn3)c21 , give the reported percentage damage caused to the plant, five-point scale, IPOHE.
3 (3=41-60%)

---

Tested on: IPOHE
test-description: Post-emergence Test, glasshouse, IPOHE
Type: in vivo
setup-conditions: 250 g/ha, evaluated after 13 days
measurement-kind: percentage damage caused to the plant, five-point scale, IPOHE

What value of percentage damage caused to the plant, five-point scale, IPOHE has been reported for the following compound? FC(F)(F)CCCn1ccc2cccc(Oc3ncc(Cl)cn3)c21
2 (2=21-40%)

Recorded percentage damage caused to the plant, five-point scale, IPOHE of C=CCCn1nc(Cl)c2cccc(Oc3ncc(Cl)cn3)c21 , please.
2 (2=21-40%)

Which value of percentage damage caused to the plant, five-point scale, IPOHE has been reported for CC(C)=CCn1nc(Cl)c2cccc(Oc3ncc(Cl)cn3)c21 in the records?
2 (2=21-40%)

Name the recorded percentage damage caused to the plant, five-point scale, IPOHE for Fc1cc(Cl)cnc1Oc1cccc2ccn(CCCC(F)(F)F)c12 .
2 (2=21-40%)

For the compound N#Cc1cc(Cl)cnc1Oc1cc(Cl)cc2cnn(CCCC(F)(F)F)c12 , what percentage damage caused to the plant, five-point scale, IPOHE is on record?
1 (1=0-20%)

Recorded percentage damage caused to the plant, five-point scale, IPOHE of COc1cnc(Oc2cccc3c(Cl)nn(CCCC(F)(F)F)c23)nc1 , please.
4 (4=61-80%)

I'd like to know its percentage damage caused to the plant, five-point scale, IPOHE. The compound in question is FC(F)(F)CCn1nc(Cl)c2cccc(Oc3ncc(Cl)cn3)c21
4 (4=61-80%)

For N#Cc1nn(CCCC(F)(F)F)c2c(Oc3ncc(Cl)cn3)cccc12 , what is its reported percentage damage caused to the plant, five-point scale, IPOHE?
4 (4=61-80%)

Recorded percentage damage caused to the plant, five-point scale, IPOHE for FC(F)(F)CCCn1nc(C(F)(F)F)c2cccc(Oc3ncc(Cl)cn3)c21 , please?
4 (4=61-80%)

---

For each of the compounds below, state its percentage damage caused to the plant, five-point scale, AMARE.
System: Amaranthus retoflexus (AMARE)
test-description: Pre-emergence Test, glasshouse, AMARE
Assay type: in vivo
setup-conditions: 250 g/ha, evaluated after 13 days

Dear colleague, I am looking for the recorded percentage damage caused to the plant, five-point scale, AMARE of the following compound: FC(F)(F)CCCn1nc(Cl)c2c(Br)ccc(Oc3ncc(Cl)cn3)c21
4 (4=61-80%)

Item under review: FC(F)OCCn1nc(Cl)c2cccc(Oc3ncc(Cl)cn3)c21 . Reported percentage damage caused to the plant, five-point scale, AMARE?
5 (5=81-100%)

Which value of percentage damage caused to the plant, five-point scale, AMARE has been reported for FC(F)(F)CCCn1nnc2c(Cl)ccc(Oc3ncc(Cl)cn3)c21 in the records?
4 (4=61-80%)

Recorded percentage damage caused to the plant, five-point scale, AMARE of FC(F)(F)CCCn1nnc2cc(Cl)cc(Oc3ncc(Cl)cn3)c21 , please.
1 (1=0-20%)

Item under review: Fc1cc(Cl)cnc1Oc1ccc(Cl)c2cnn(CCCC(F)(F)F)c12 . Reported percentage damage caused to the plant, five-point scale, AMARE?
1 (1=0-20%)

Report percentage damage caused to the plant, five-point scale, AMARE for FC(F)(F)CCCn1nc(Br)c2cccc(Oc3ncc(Cl)cn3)c21 please.
5 (5=81-100%)

Which percentage damage caused to the plant, five-point scale, AMARE value is on record for FC(F)(F)CCCn1nc(Br)c2cc(Br)cc(Oc3ncc(Cl)cn3)c21 ?
1 (1=0-20%)

Suppose we examine the compound FC(F)(F)CCCn1ncc2cc(Br)cc(Oc3ncc(Cl)cn3)c21 ; what percentage damage caused to the plant, five-point scale, AMARE value has been reported?
1 (1=0-20%)

Item FC(F)(F)CCCn1nc(Cl)c2c(Cl)ccc(Oc3ncc(Cl)cn3)c21 has what recorded percentage damage caused to the plant, five-point scale, AMARE?
5 (5=81-100%)

Given the compound COc1nn(CCCC(F)(F)F)c2c(Oc3ncc(Cl)cn3)cccc12 , what is its reported percentage damage caused to the plant, five-point scale, AMARE?
2 (2=21-40%)

Item under review: Fc1cc(Cl)cnc1Oc1cccc2ccn(CCCC(F)(F)F)c12 . Reported percentage damage caused to the plant, five-point scale, AMARE?
1 (1=0-20%)

Value lookup for percentage damage caused to the plant, five-point scale, AMARE; key = CC(C)Cn1nc(Cl)c2cccc(Oc3ncc(Cl)cn3)c21
2 (2=21-40%)

Param item = N#Cc1cc(Oc2ncc(Cl)cn2)c2c(c1)c(Cl)nn2CCCC(F)(F)F ; retrieve measured percentage damage caused to the plant, five-point scale, AMARE.
1 (1=0-20%)

Need percentage damage caused to the plant, five-point scale, AMARE of Fc1cc(Cl)cnc1Oc1cccc2cnn(CCCC(F)(F)F)c12 , thanks.
1 (1=0-20%)

Report percentage damage caused to the plant, five-point scale, AMARE for Fc1cnc(Oc2cccc3c(C(F)(F)F)nn(CCCC(F)(F)F)c23)nc1 please.
5 (5=81-100%)

Report percentage damage caused to the plant, five-point scale, AMARE for FC(F)CCCn1nc(Cl)c2cccc(Oc3ncc(Cl)cn3)c21 please.
5 (5=81-100%)

So what's the measured percentage damage caused to the plant, five-point scale, AMARE for this one? COCCn1nc(Cl)c2cccc(Oc3ncc(Cl)cn3)c21
5 (5=81-100%)

What does the data say about its percentage damage caused to the plant, five-point scale, AMARE? Entry: N#Cc1cc(Oc2ncc(Cl)cn2)c2c(cnn2CCCC(F)(F)F)c1
4 (4=61-80%)

---

Tested on: Amaranthus retoflexus (AMARE)
test-description: Pre-emergence Test, glasshouse, AMARE
Format: in vivo
setup-conditions: 250 g/ha, evaluated after 13 days
measurement-kind: percentage damage caused to the plant, five-point scale, AMARE

Sample CCCn1nc(Cl)c2cccc(Oc3ncc(Cl)cn3)c21 — what was its percentage damage caused to the plant, five-point scale, AMARE?
3 (3=41-60%)

Using the record for COc1cc(Oc2cccc3cnn(CCCC(F)(F)F)c23)ncn1 , report its percentage damage caused to the plant, five-point scale, AMARE.
2 (2=21-40%)

Which measured percentage damage caused to the plant, five-point scale, AMARE value corresponds to FCCn1nc(Cl)c2cccc(Oc3ncc(Cl)cn3)c21 ?
4 (4=61-80%)

percentage damage caused to the plant, five-point scale, AMARE for FC(F)(F)CCCn1ccc2cccc(Oc3ncc(Cl)cn3)c21 ?
1 (1=0-20%)

Find the recorded percentage damage caused to the plant, five-point scale, AMARE belonging to N#Cc1ccc2cnn(CCCC(F)(F)F)c2c1Oc1ncc(Cl)cn1 and report it.
1 (1=0-20%)

---

I'd appreciate it if you could supply percentage damage caused to the plant, five-point scale, AMARE values for the items below.
Test system: Amaranthus retoflexus (AMARE)
test-description: Pre-emergence Test, glasshouse, AMARE
Format: in vivo
setup-conditions: 250 g/ha, evaluated after 13 days
Procedure: Seeds of a variety of test species are sown in standard soil in pots Amaranthus retoflexus (AMARE), Echinochloa crus-galli (ECHCG), Setaria faberi (SETFA)). […] After 13 days for pre- and post-emergence, the test is evaluated for the percentage damage caused to the plant. […]

Need percentage damage caused to the plant, five-point scale, AMARE, item Cc1nn(CCCC(F)(F)F)c2c(Oc3ncc(Cl)cn3)cccc12 [Compound 1.021]
5 (5=81-100%)

Request the reported percentage damage caused to the plant, five-point scale, AMARE associated with C=C(C)Cn1nc(Cl)c2cccc(Oc3ncc(Cl)cn3)c21 [Compound 1.064]
1 (1=0-20%)

What value of measured percentage damage caused to the plant, five-point scale, AMARE is listed for FCCCCn1nc(Cl)c2cccc(Oc3ncc(Cl)cn3)c21 [Compound 1.039] ?
5 (5=81-100%)

Any idea what percentage damage caused to the plant, five-point scale, AMARE was measured for N#Cc1ccc(Oc2ncc(Cl)cn2)c2c1c(Cl)nn2CCCC(F)(F)F [Compound 1.029] ?
2 (2=21-40%)

Can you look up the measured percentage damage caused to the plant, five-point scale, AMARE of CC(C)=CCCn1nc(Cl)c2cccc(Oc3ncc(Cl)cn3)c21 [Compound 1.066] for me?
3 (3=41-60%)
